test system: fungal tyrosinase (EC. 1.14.18.1); test: Measurement of the power to inhibit tyrosinase (L-Dopa oxidation to dopachrome, O.D. at 475 nm); assay type: biochemical; conditions: fungal tyrosinase, L-Dopa substrate, pH 6.5, 30° C.
Quantity Kind: Concentration which inhibits the enzymatic activity of tyrosinase by 50%

Enquiry: What value of Concentration which inhibits the enzymatic activity of tyrosinase by 50% has been recorded for this entry: N#CSCc1ccccc1 [Benzyl thiocyanate]
Return: 0.25 % (weight/volume)

Enquiry: CC(=O)N=C=S [Acetyl isothiocyanate] ?
Return: 0.055 % (weight/volume)

Enquiry: O=C(N=C=S)c1ccccc1 [Benzoyl isothiocyanate] ?
Return: 0.0063 % (weight/volume)

Enquiry: Oc1ccc(O)cc1 [Hydroquinone] ?
Return: 0.154 % (weight/volume)

Enquiry: N#C[S-].[K+] [Potassium thiocyanate] ?
Return: 0.20 % (weight/volume)

Enquiry: S=C=NCc1ccccc1 [Benzyl isothiocyanate] ?
Return: 0.0980 % (weight/volume)

Enquiry: C[S+]([O-])CCCCN=C=S (centres unmarked) [Sulforaphane] ?
Return: 0.103 % (weight/volume)

Enquiry: S=C=NC1CCCCC1 [Cyclohexyl isothiocyanate] ?
Return: 0.104 % (weight/volume)
